study.system: UniProtKB Q9GZU1
Sequence (Q9GZU1 17-572 limits assumed): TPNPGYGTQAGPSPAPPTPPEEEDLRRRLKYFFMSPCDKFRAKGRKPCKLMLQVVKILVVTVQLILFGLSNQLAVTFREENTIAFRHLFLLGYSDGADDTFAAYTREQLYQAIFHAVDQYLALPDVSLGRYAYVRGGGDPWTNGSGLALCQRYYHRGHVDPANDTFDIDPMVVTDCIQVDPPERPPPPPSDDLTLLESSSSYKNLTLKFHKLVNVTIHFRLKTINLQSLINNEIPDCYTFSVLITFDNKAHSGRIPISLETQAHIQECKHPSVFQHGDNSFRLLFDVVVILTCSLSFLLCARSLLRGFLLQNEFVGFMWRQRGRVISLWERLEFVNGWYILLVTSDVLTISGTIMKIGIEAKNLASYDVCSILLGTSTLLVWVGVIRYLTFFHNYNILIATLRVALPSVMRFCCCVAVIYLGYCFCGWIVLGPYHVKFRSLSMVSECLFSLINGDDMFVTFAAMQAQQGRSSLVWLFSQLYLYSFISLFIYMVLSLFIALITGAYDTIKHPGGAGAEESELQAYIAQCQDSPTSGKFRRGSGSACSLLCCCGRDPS
method.summary: Calcium flux in HEK293 overexpressing TRPML1 plasma membrane variant (FLIPR, Calcium 6 dye)
condition.parameters: HEK293/TRPML1-PM clone A5 cells; 4-parameter logistic fit; read-out: TRPML1 calcium flux (FLIPR) dose response: EC50
Method: Example B1. Calcium Flux in HEK293 Overexpressing TRPML1 Plasma Membrane Variant—Calcium 6 Dye […] HEK293/TRPML1-PM clone A5 cells were trypsinized from flasks, counted, then diluted in media to 15,000 cells per 25 μL, and seeded into a black, 384-well viewplate, and cultured overnight. […] After incubating for 2 hours at 37° C., the plate was moved to the FLIPR in the read position. […]
value.type: pEC50
On this scale, pEC50 is minus log10 of a concentration expressed in M (mol/L).

As a guide, the following entries are already answered.
[
  {
    "molecule": "CN(CC12CC(C)(C1)C2)c1ccccc1NS(=O)(=O)c1ccc(S(=O)(=O)N(C)C)cc1 [Compound 65]",
    "value.type": "pEC50",
    "measurement": 6.50
  },
  {
    "molecule": "CCN(CC)c1ccccc1NS(=O)(=O)c1ccc(S(=O)(=O)N(C)C)cc1 [Compound 82]",
    "value.type": "pEC50",
    "measurement": 5.42
  },
  {
    "molecule": "CN(Cc1cnc2n1CCC2)c1ccccc1NS(=O)(=O)c1ccc(S(=O)(=O)N(C)C)cc1 [Compound 79]",
    "value.type": "pEC50",
    "measurement": 4.55
  }
]

Field: next molecule
stdin: Provide pEC50 value for the following molecule: CN(c1ccccc1NS(=O)(=O)c1ccc(S(=O)(=O)N(C)C)cc1)C1CCCCC1(F)F (stereo not shown) [Compound 103]
stdout: 5.71
